target.under.test: Inhibitor of nuclear factor kappa-B kinase subunit beta (Homo sapiens, UniProt O14920)
method.summary: In vitro inhibitory concentration required against recombinant human IkB kinase beta (IKK-beta)
pIC50: −log10 of the molar value.
Reported pIC50 values follow for various molecules
measured.quantity: pIC50

>  <molecule>
N#Cc1c(-c2ccccc2C(=O)NCCN2CCCCC2)cc(-c2ccccc2O)nc1N

>  <prefix.operator>
=

>  <meas.value>
6.30

$$$$
>  <molecule>
N#Cc1c(-c2cccc(NC(=O)C(N)CC(=O)O)c2)cc(-c2ccccc2O)nc1N (centres undefined)

>  <prefix.operator>
=

>  <meas.value>
6.22

$$$$
>  <molecule>
N#Cc1c(-c2ccc(NC(=O)CCCC(=O)O)cc2)cc(-c2ccccc2O)nc1N

>  <prefix.operator>
=

>  <meas.value>
6.30

$$$$
>  <molecule>
CN(C)c1ccc(-c2cc(-c3ccccc3O)nc(N)c2C#N)cc1NC(=O)CCN1CCCCC1.Cl

>  <prefix.operator>
=

>  <meas.value>
6.10

$$$$
>  <molecule>
COc1ccc(O)c(-c2cc(-c3cccc(NC(=O)C(O)CCC(=O)O)c3)c(C#N)c(N)n2)c1 (centres undefined)

>  <prefix.operator>
=

>  <meas.value>
5.28

$$$$
>  <molecule>
N#Cc1c(-c2ccc([N+](=O)[O-])cc2)cc(-c2ccccc2O)nc1N

>  <prefix.operator>
<

>  <meas.value>
4.70

$$$$
>  <molecule>
COCC(=O)Nc1cccc(-c2cc(-c3ccccc3O)nc(N)c2C#N)c1

>  <prefix.operator>
=

>  <meas.value>
5.85

$$$$
>  <molecule>
COc1cccc(O)c1-c1cc(-c2cccc(NC(=O)C(O)CCC(=O)O)c2)c(C#N)c(N)n1 (centres undefined)

>  <prefix.operator>
=

>  <meas.value>
5.70

$$$$
>  <molecule>
N#Cc1c(-c2cccc(NC(=O)C(O)CCC(=O)O)c2)cc(-c2cc(Cl)ccc2O)nc1N (centres undefined)

>  <prefix.operator>
=

>  <meas.value>
5.26

$$$$
>  <molecule>
N#Cc1c(-c2cccc(NC(=O)CCN3CCCCC3)c2)cc(-c2ccccc2O)nc1O

>  <prefix.operator>
<

>  <meas.value>
4.70

$$$$
>  <molecule>
N#Cc1c(-c2ccccc2C(=O)O)cc(-c2ccccc2O)nc1N

>  <prefix.operator>
=

>  <meas.value>
6.15

$$$$
>  <molecule>
N#Cc1c(-c2ccc(C(=O)O)cc2)cc(-c2ccccc2O)nc1N

>  <prefix.operator>
=

>  <meas.value>
6.15

$$$$
>  <molecule>
N#Cc1c(-c2cccc(NC(=O)C(O)CCC(=O)[O-])c2)cc(-c2ccccc2O)nc1N.[Na+] (centres undefined)

>  <prefix.operator>
=

>  <meas.value>
6.05

$$$$
>  <molecule>
N#Cc1c(-c2cccc(NC(=O)CCN3CCCCC3)c2)cc(-c2ccccc2O)nc1N

>  <prefix.operator>
=

>  <meas.value>
6.22

$$$$
>  <molecule>
N#Cc1c(-c2cccc(C(=O)NCCN3CCCCC3)c2)cc(-c2ccccc2O)nc1N

>  <prefix.operator>
=

>  <meas.value>
5.74

$$$$
>  <molecule>
N#Cc1c(-c2ccc(NC(=O)CCN3CCCCC3)cc2)cc(-c2ccccc2O)nc1N

>  <prefix.operator>
=

>  <meas.value>
6.00

$$$$
>  <molecule>
Cl.N#Cc1c(-c2ccc(N3CCCC3)c(NC(=O)CCN3CCCCC3)c2)cc(-c2ccccc2O)nc1N

>  <prefix.operator>
=

>  <meas.value>
6.00

$$$$
>  <molecule>
Cc1cccc(O)c1-c1cc(-c2cccc(NC(=O)C(O)CCC(=O)O)c2)c(C#N)c(N)n1 (centres undefined)

>  <prefix.operator>
<

>  <meas.value>
4.70

$$$$
>  <molecule>
N#Cc1c(-c2cccc(NC(=O)CCN3CCCCC3)c2)cc(-c2cccc(O)c2)nc1N

>  <prefix.operator>
<

>  <meas.value>
4.70

$$$$

---

Tested on: A549
method.summary: In vitro concentration required to inhibit the TNF-alpha-induced RANTES production in A549 human lung epithelium cell line
Type: functional, cell-based
pIC50: −log10 of the molar value.
Assign class by pIC50: not lower than 5 means Y; lower than 5 means N.

>  <entry.smiles>
N#Cc1c(-c2ccc([N+](=O)[O-])cc2)cc(-c2ccccc2O)nc1N

>  <target.under.test>
A549

>  <group>
N

$$$$
>  <entry.smiles>
N#Cc1c(-c2ccc(NC(=O)CCCC(=O)O)cc2)cc(-c2ccccc2O)nc1N

>  <target.under.test>
A549

>  <group>
N

$$$$
>  <entry.smiles>
N#Cc1c(-c2cccc(NC(=O)CCN3CCCCC3)c2)cc(-c2ccccc2O)nc1O

>  <target.under.test>
A549

>  <group>
N

$$$$
>  <entry.smiles>
CC(=O)Nc1nc(-c2ccccc2O)cc(-c2cccc(NC(=O)CCN3CCCCC3)c2)c1C#N

>  <target.under.test>
A549

>  <group>
N

$$$$
>  <entry.smiles>
N#Cc1c(-c2cccc(C(=O)O)c2)cc(-c2ccccc2O)nc1N

>  <target.under.test>
A549

>  <group>
N

$$$$
>  <entry.smiles>
Cl.N#Cc1c(-c2ccc(N3CCCC3)c(NC(=O)CCN3CCCCC3)c2)cc(-c2ccccc2O)nc1N

>  <target.under.test>
A549

>  <group>
Y

$$$$
>  <entry.smiles>
N#Cc1c(-c2cccc(NC(=O)CCN3CCCCC3)c2)cc(-c2ccccc2O)nc1N

>  <target.under.test>
A549

>  <group>
Y

$$$$

---

target.under.test: Inhibitor of nuclear factor kappa-B kinase subunit beta (Homo sapiens, UniProt O14920)
Sequence (O14920 whole entry): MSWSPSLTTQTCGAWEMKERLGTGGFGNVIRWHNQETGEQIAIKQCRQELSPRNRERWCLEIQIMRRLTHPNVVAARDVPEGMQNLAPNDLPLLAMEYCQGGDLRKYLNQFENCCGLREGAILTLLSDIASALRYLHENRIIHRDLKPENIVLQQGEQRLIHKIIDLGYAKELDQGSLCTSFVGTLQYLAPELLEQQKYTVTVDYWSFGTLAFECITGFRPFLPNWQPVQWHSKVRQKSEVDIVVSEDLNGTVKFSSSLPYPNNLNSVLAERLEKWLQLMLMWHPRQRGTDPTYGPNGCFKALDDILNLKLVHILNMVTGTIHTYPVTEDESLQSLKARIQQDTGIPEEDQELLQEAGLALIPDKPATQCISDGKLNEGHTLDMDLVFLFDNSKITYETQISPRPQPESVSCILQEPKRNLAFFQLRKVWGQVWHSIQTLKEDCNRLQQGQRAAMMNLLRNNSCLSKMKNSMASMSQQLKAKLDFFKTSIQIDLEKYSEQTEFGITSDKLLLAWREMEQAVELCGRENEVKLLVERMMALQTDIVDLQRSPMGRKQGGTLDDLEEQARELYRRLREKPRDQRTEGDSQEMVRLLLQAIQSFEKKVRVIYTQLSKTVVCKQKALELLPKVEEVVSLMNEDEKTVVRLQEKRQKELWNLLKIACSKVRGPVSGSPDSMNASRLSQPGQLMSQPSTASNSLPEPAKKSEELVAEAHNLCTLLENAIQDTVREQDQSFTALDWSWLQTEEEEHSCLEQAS
method.summary: In vitro inhibitory concentration required against recombinant human IkB kinase beta (IKK-beta)
pIC50: −log10 of the molar value.

>  <compound>
Cc1c(-c2ccccc2O)nc(N)c(C#N)c1-c1cccc(NC(=O)C(O)CCC(=O)O)c1 (stereo unspecified)

>  <prefix.operator>
<

>  <pIC50>
4.70

$$$$
>  <compound>
N#Cc1c(-c2cccc(NC(=O)C(O)CCC(=O)O)c2)cc(-c2cc(F)ccc2O)nc1N (stereo unspecified)

>  <prefix.operator>
=

>  <pIC50>
5.77

$$$$
>  <compound>
N#Cc1c(-c2ccc(C(=O)NCCN3CCCCC3)cc2)cc(-c2ccccc2O)nc1N

>  <prefix.operator>
=

>  <pIC50>
6.22

$$$$
>  <compound>
N#Cc1c(-c2cccc(NC(=O)C(O)CCC(=O)O)c2)cc(-c2ccc(O)cc2)nc1N (stereo unspecified)

>  <prefix.operator>
<

>  <pIC50>
4.70

$$$$
>  <compound>
N#Cc1c(-c2cccc(C(=O)O)c2)cc(-c2ccccc2O)nc1N

>  <prefix.operator>
=

>  <pIC50>
5.60

$$$$
>  <compound>
N#Cc1c(-c2cccc(NC(=O)C3CCC(=O)O3)c2)cc(-c2ccccc2O)nc1N (stereo unspecified)

>  <prefix.operator>
=

>  <pIC50>
5.82

$$$$

---

System: A549
method.summary: In vitro concentration required to inhibit the TNF-alpha-induced RANTES production in A549 human lung epithelium cell line
Assay type: functional, cell-based
pIC50: −log10 of the molar value.
Reported pIC50 values for the following compounds.

>  <compound>
N#Cc1c(-c2ccc(NC(=O)CCN3CCCCC3)cc2)cc(-c2ccccc2O)nc1N

>  <pIC50>
< 4.30

$$$$
>  <compound>
N#Cc1c(-c2ccccc2C(=O)O)cc(-c2ccccc2O)nc1N

>  <pIC50>
< 4.30

$$$$
>  <compound>
COc1ccc(O)c(-c2cc(-c3cccc(NC(=O)C(O)CCC(=O)O)c3)c(C#N)c(N)n2)c1 (stereo not given)

>  <pIC50>
< 4.30

$$$$
>  <compound>
COCC(=O)Nc1cccc(-c2cc(-c3ccccc3O)nc(N)c2C#N)c1

>  <pIC50>
< 4.30

$$$$
>  <compound>
N#Cc1c(-c2ccc(N3CCCCC3)c(NC(=O)CCN3CCCCC3)c2)cc(-c2ccccc2O)nc1N

>  <pIC50>
5.30

$$$$
>  <compound>
CN(C)c1ccc(-c2cc(-c3ccccc3O)nc(N)c2C#N)cc1

>  <pIC50>
< 4.30

$$$$
>  <compound>
CN(C)c1ccc(-c2cc(-c3ccccc3O)nc(N)c2C#N)cc1NC(=O)CCN1CCCCC1.Cl

>  <pIC50>
5.10

$$$$
>  <compound>
COc1ccccc1-c1cc(-c2cccc(NC(=O)C(O)CCC(=O)O)c2)c(C#N)c(N)n1 (stereo not given)

>  <pIC50>
< 4.30

$$$$
>  <compound>
N#Cc1c(-c2ccccc2C(=O)NCCN2CCCCC2)cc(-c2ccccc2O)nc1N

>  <pIC50>
5.22

$$$$
>  <compound>
N#Cc1c(-c2cccc(NC(=O)C(O)CCC(=O)O)c2)cc(-c2ccc(O)cc2)nc1N (stereo not given)

>  <pIC50>
< 4.30

$$$$
>  <compound>
N#Cc1c(-c2ccc(C(=O)NCCN3CCCCC3)cc2)cc(-c2ccccc2O)nc1N

>  <pIC50>
< 4.30

$$$$
>  <compound>
N#Cc1c(-c2cccc(NC(=O)C(N)CC(=O)O)c2)cc(-c2ccccc2O)nc1N (stereo not given)

>  <pIC50>
4.82

$$$$
>  <compound>
N#Cc1c(-c2ccc(C(=O)O)cc2)cc(-c2ccccc2O)nc1N

>  <pIC50>
< 4.30

$$$$
>  <compound>
N#Cc1c(-c2cccc(NC(=O)C(O)CCC(=O)O)c2)cc(-c2ccccc2)nc1N (stereo not given)

>  <pIC50>
< 4.30

$$$$
>  <compound>
COc1cccc(O)c1-c1cc(-c2cccc(NC(=O)C(O)CCC(=O)O)c2)c(C#N)c(N)n1 (stereo not given)

>  <pIC50>
< 4.30

$$$$
>  <compound>
N#Cc1c(-c2cccc(N)c2)cc(-c2ccccc2O)nc1N

>  <pIC50>
< 4.30

$$$$
>  <compound>
N#Cc1c(-c2cccc(NC(=O)CC(N)C(=O)O)c2)cc(-c2ccccc2O)nc1N (stereo not given)

>  <pIC50>
4.46

$$$$
>  <compound>
N#Cc1c(-c2cccc(NC(=O)C(O)CCC(=O)O)c2)cc(-c2cc(F)ccc2O)nc1N (stereo not given)

>  <pIC50>
< 4.30

$$$$
>  <compound>
N#Cc1c(-c2cccc(NC(=O)C(O)CCC(=O)O)c2)cc(-c2cc(Cl)ccc2O)nc1N (stereo not given)

>  <pIC50>
< 4.30

$$$$
>  <compound>
N#Cc1c(-c2cccc(NC(=O)C(O)CCC(=O)[O-])c2)cc(-c2ccccc2O)nc1N.[Na+] (stereo not given)

>  <pIC50>
4.70

$$$$
